- System: Chinese hamster V79-379 lung fibroblasts
- Assay Comment: Uptake of phthalocyanines into V79 cells
- Test Parameters: 4 μM, 18 hours
Record form. Attribute: Uptake Into V79 Cells, 4 μM. Fill in for each entry.
Answers are plain numbers, in n Moles/10^6 cells.

Solved entries (count: 2):
{"columns": ["Molecule", "Assay Target", "Uptake Into V79 Cells, 4 μM / n Moles/10^6 cells"],
 "data": [
  ["C[Si](C)(CCCCN)O[Si]1(O[Si](C)(C)CCCCN)n2c3c4ccccc4c2N=C2N=C(N=c4c5ccccc5c(n41)=NC1=NC(=N3)c3ccccc31)c1ccccc12 [Compound VII, SiPc[OSi(CH3)2(CH2)4NH2]2]", "Chinese hamster V79-379 lung fibroblasts", 1.1],
  ["CCCCCCCCCCCC[N+](C)(C)CCC[Si](C)(C)[O][Al]1[n]2c3c4ccccc4c2N=C2N=C(N=c4c5ccccc5c([n]41)=NC1=NC(=N3)c3ccccc31)c1ccccc12.[I-] [Compound XXI]", "Chinese hamster V79-379 lung fibroblasts", 5.8]
]}

Provide each entry's Uptake Into V79 Cells, 4 μM from the list below.
1. C[Si](C)(CCCO)O[Si]1(O)n2c3c4ccccc4c2N=C2N=C(N=c4c5ccccc5c(n41)=NC1=NC(=N3)c3ccccc31)c1ccccc12 (stereo not drawn) [Compound XVII, HOSiPCOSi(CH3)2(CH2)3OH]
2. CCN(CC)c1ccc2c(c1)Oc1cc(N(CC)CC)ccc1C21c2ccccc2C(=O)N1CCCC[Si](C)(C)O[Si]1(O[Si](C)(C)C(C)(C)C)n2c3c4ccccc4c2N=C2N=C(N=c4c5ccccc5c(n41)=NC1=NC(=N3)c3ccccc31)c1ccccc12 (stereo not drawn) [Compound XV]
3. CN1CCN(CCC[Si](C)(C)O[Si]2(O)n3c4c5ccccc5c3N=C3N=C(N=c5c6ccccc6c(n52)=NC2=NC(=N4)c4ccccc42)c2ccccc23)CC1 (stereo not drawn) [Compound XXVIII, HOSiPcOSi(CH3)2(CH2)3NC4H8NCH3]

result:
1: 1.7; 2: 0.14; 3: 11.4

Provide each entry's Uptake Into V79 Cells, 4 μM from the list below.
1. C[Si](C)(CCCN1CCOCC1)O[Si]1(O)n2c3c4ccccc4c2N=C2N=C(N=c4c5ccccc5c(n41)=NC1=NC(=N3)c3ccccc31)c1ccccc12 (stereo not drawn) [Compound XIX, HOSiPcOSi(CH3)2(CH2)3NC4H8O]
2. CCN(CCC[Si](C)(C)O[Si]1(O)n2c3c4ccccc4c2N=C2N=C(N=c4c5ccccc5c(n41)=NC1=NC(=N3)c3ccccc31)c1ccccc12)CCN(C)C (stereo not drawn) [Compound X]
3. CCN(CCC[Si](C)(C)O[Si]1(O[Si](C)(C)CCCN(CC)CCN(C)C)n2c3c4ccccc4c2N=C2N=C(N=c4c5ccccc5c(n41)=NC1=NC(=N3)c3ccccc31)c1ccccc12)CCN(C)C [Compound XVIII]
4. CN(C)CCC[Si](C)(C)O[Si]1(O[Si](C)(C)CCCN(C)C)n2c3c4ccccc4c2N=C2N=C(N=c4c5ccccc5c(n41)=NC1=NC(=N3)c3ccccc31)c1ccccc12 [Compound XII, SiPc[OSi(CH3)2(CH2)3N(CH3)2]2]

result:
[2.4, 3.3, 3.6, 4.6]
